- ASSAY_SYSTEM: recombinant human ALK5 (TGF-βR1) protein (Homo sapiens)
- Construct: purchased Life Technologies PR9075A
- ASSAY_DETAILS: Biochemical ALK5 (TGF-βR1) assay to measure pKi (LANCE Ultra ULight kinase assay)
- ASSAY_CONDITIONS: apparent pKi from pIC50 by Cheng-Prusoff, read-out: ALK5 pKi (converted)
PARAMETER: Ki

Quick one: Ki for Cc1cccc(-c2n[nH]cc2-c2ccc3ncc(N4CCC(C)(O)CC4)cc3n2)n1 [Compound 617] ?
< 0.0316 nM

What Ki value was documented for this compound, Cc1cccc(-c2[nH]nnc2-c2ccc3ncc(N4CCC(N5CCN(C)CC5)CC4)cc3n2)n1 [Compound 119] ?
0.0398 to 0.316 nM

Record request: Ki value, item Cc1cccc(-c2[nH]cnc2-c2ccc3ncc(-c4csc(C(=O)O[C@H]5CCNC5)n4)cc3c2)n1 [Compound 1024]
0.0398 to 0.316 nM

Item under review: COc1[nH]nc(-c2cccc(C)n2)c1-c1ccc2ncc(N3CCNCC3)cc2n1 [Compound 33] . Reported Ki?
0.0398 to 0.316 nM

For Cc1cccc(-c2n[nH]cc2-c2ccc3ncc(-c4cnn(CCN)c4)cc3n2)n1 [Compound 305] , what is its reported Ki?
< 0.0316 nM

Which measured Ki value corresponds to COC(=O)c1coc(-c2ccnc3ccc(-c4c[nH]nc4-c4cccc(C)n4)nc23)n1 [Compound 817] ?
0.398 to 3.16 nM

What value of Ki has been recorded for this entry: Cc1cccc(-c2[nH]cnc2-c2ccc3ncc(N4CCC(NCCSC(CCO)C(=O)O)C4)cc3c2)n1 (centres unmarked) [Compound 720]
0.0398 to 0.316 nM

Now, please, on to the next compound.
Could you share which Ki value was measured for Cc1cccc(-c2n[nH]cc2-c2ccc3ncc(N4CCN(CC(F)(F)F)CC4)cc3n2)n1 [Compound 266] ?
0.0398 to 0.316 nM

---

- ASSAY_SYSTEM: recombinant human ALK5 (TGF-βR1) protein (Homo sapiens, UniProt P36897)
- Construct: purchased Life Technologies PR9075A
- Sequence (P36897 34-503): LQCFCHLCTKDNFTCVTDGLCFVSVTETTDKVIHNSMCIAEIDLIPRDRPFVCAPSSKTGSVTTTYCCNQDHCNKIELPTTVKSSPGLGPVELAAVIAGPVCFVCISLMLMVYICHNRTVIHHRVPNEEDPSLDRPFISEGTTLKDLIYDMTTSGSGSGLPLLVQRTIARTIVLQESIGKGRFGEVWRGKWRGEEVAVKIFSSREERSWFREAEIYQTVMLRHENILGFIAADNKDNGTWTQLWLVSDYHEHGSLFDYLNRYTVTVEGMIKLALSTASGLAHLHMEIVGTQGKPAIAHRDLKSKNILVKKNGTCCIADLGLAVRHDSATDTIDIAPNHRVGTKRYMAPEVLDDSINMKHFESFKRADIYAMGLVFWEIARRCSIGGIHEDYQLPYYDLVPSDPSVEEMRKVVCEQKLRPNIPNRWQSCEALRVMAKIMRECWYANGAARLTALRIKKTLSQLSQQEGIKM
- ASSAY_DETAILS: Biochemical ALK5 (TGF-βR1) assay to measure pKi (LANCE Ultra ULight kinase assay)
- ASSAY_CONDITIONS: apparent pKi from pIC50 by Cheng-Prusoff, read-out: ALK5 pKi (converted)
PARAMETER: Ki

Name the reported Ki value associated with the compound Cc1cccc(-c2[nH]ncc2-c2ccc3nccc(C(=O)OC[C@H]4CCCN4)c3c2)n1
3.98 to 31.6 nM

Fill blank: measured Ki of the compound Cc1cccc(-c2[nH]ncc2-c2ccc3ncc(C(=O)O[C@H]4CCCNC4)cc3c2)n1 is ____.
0.0398 to 0.316 nM

Quick one: Ki for Cc1cccc(-c2[nH]cnc2-c2ccc3ncc(-c4ccc(C(=O)O[C@@H]5CCNC5)cn4)cc3c2)n1 ?
< 0.0316 nM

For the compound Cc1cccc(-c2n[nH]cc2-c2ccc3ncc(-c4nnn5c4CNCC5)cc3c2)n1 , what Ki is on record?
0.0398 to 0.316 nM

Record request: Ki value, item Cc1nc(-c2nc3ccccn3c2-c2ccc3ncc(-c4cnn(C5CCCNC5)c4)cc3n2)ccc1F (stereo not shown)
0.0398 to 0.316 nM

New cases:
Dear colleague, I am looking for the recorded Ki of the following compound: Cc1cccc(-c2n[nH]cc2-c2ccc3ncc(N4CCCCC4)cc3n2)n1
0.0398 to 0.316 nM

Endpoint output: Ki of Cc1cccc(-c2[nH]cnc2-c2ccc3ncc(-c4cccc(N5CCNCC5)n4)cc3c2)n1 . Value?
0.0398 to 0.316 nM

Which Ki is reported for this compound? CNC1CCN(c2cnc3ccc(-c4c[nH]nc4-c4cccc(C(C)C)n4)nc3c2)CC1
0.0398 to 0.316 nM

# get_value(readout='Ki', item= Cc1cccc(-c2n[nH]cc2-c2ccc3ncc(-c4nnn5c4NCC5)cc3n2)n1 )
< 0.0316 nM

Requested field: Ki. Item: Cc1cccc(-c2[nH]cnc2-c2ccc3ncc(-c4nc(C(=O)O[C@H]5CCNC5)cs4)cc3c2)n1
0.0398 to 0.316 nM

For the compound shown here, COC(=O)CC1CNCCN1CCNc1cnc2ccc(-c3nc[nH]c3-c3cccc(C)n3)cc2c1 (stereo not shown) , give the reported Ki.
0.0398 to 0.316 nM

Name the recorded Ki for Cc1cccc(-c2[nH]cnc2-c2ccc3ncc(NCCN(C)C4CNC4)cc3c2)n1 .
0.0398 to 0.316 nM

Which measured Ki value corresponds to Cc1cccc(-c2n[nH]cc2-c2ccc3nccc(C(=O)OCCN4CCOCC4)c3n2)n1 ?
0.398 to 3.16 nM

Query (compound): Cc1cccc(-c2n[nH]cc2-c2ccc3ncc(-c4nc5c(s4)CNCC5)cc3n2)n1 ; field requested: Ki
0.0398 to 0.316 nM

Reported Ki, compound Cc1cccc(-c2n[nH]cc2-c2ccc3ncc(-c4ccnc(C(C)(C)C#N)c4)cc3n2)n1 : ____
< 0.0316 nM

I have this compound here, Cc1cccc(-c2n[nH]cc2-c2ccc3nccc(N4CCNCC4)c3n2)n1 , and I need its recorded Ki.
0.0398 to 0.316 nM

I'd like to know its Ki. The compound in question is Cc1cccc(-c2[nH]cnc2-c2ccc3ncc(-c4cc(C(=O)OC5CNC5)cs4)cc3c2)n1
< 0.0316 nM

Given Cc1cccc(-c2n[nH]cc2-c2ccc3ncc(Nc4ccc(N5CCNCC5)cn4)cc3c2)n1 , state its recorded Ki.
< 0.0316 nM

Requested read-out: Ki. Entry: Cc1cccc(-c2[nH]cnc2-c2ccc3ncc(-c4cnc5c(c4)CNC5)cc3c2)n1
0.0398 to 0.316 nM

Need Ki, item CNC(=O)[C@H]1CN(c2cnc3ccc(-c4nc[nH]c4-c4cccc(C)n4)cc3c2)CCN1
0.0398 to 0.316 nM

Return reported Ki; argument: CC(=O)NC1CC=C(c2cnc3ccc(-c4nc[nH]c4-c4cccc(C)n4)cc3c2)CC1 (stereo not shown)
< 0.0316 nM

GET /values?readout=Ki&item= Cc1cccc(-c2n[nH]cc2-c2ccc3ncc(NC(=O)CCCN4CCN(C(C)C)CC4)cc3n2)n1
0.0398 to 0.316 nM

Param item = CNCCn1cc(-c2cnc3ccc(-c4c(-c5cccc(C)n5)nn5c4CNCC5)cc3c2)cn1 ; retrieve measured Ki.
0.0398 to 0.316 nM
